Value source: patent US20220363662A1

molecular target: LXR beta (Homo sapiens, UniProt P55055); construct: 5 μL of 4×LXR beta-LBD was added to each well (final concentration 5 nM); test: LXR beta agonist assay (Lanthascreen TR-FRET); conditions: LXR beta-LBD 5 nM, read-out: LXR-β EC50
Sequence (P55055 222-460 limits assumed): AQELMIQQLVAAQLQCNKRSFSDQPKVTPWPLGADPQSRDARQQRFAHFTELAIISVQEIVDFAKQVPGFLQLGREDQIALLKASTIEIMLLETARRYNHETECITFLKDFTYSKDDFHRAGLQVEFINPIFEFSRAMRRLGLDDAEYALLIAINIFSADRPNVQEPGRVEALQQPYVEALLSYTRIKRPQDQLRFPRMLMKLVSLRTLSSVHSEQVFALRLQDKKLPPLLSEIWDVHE
assay-readout: EC50 (nM)
Answers are plain numbers, in nM.

compound	val
CC(C)(C(=O)N1CCC(C2CCN(c3cc(Cl)c4c(=O)[nH]ccc4c3)CC2)CC1)c1ccccc1	2480

Return reported EC50 values for all items listed beneath this line.
1. O=C(NCC(F)F)c1ccc(NC2CN(C3CCN(C(=O)[C@@](O)(c4ccccc4)C(F)(F)F)CC3)C2)cc1Cl (single isomer, unassigned)
2. O=C(N1CCC(N2CCN(c3cc(Cl)c4c(=O)[nH]ccc4c3)CC2)CC1)C1(c2ccccc2)CCC1

1. 1300
2. 920
